target: T1, human MSLN-FL-his protein (human, UniProt Q13421 296-580); test: ELISA, coated antigen, antibody 20 nM
T1 construct: Made in HEK293E cells, purified on nickel column; also called hMSLN-FL-his; human MSLN full-length protein; not shown: His tag
T1 sequence (Q13421 other isoform, or with tags, fused parts or gaps): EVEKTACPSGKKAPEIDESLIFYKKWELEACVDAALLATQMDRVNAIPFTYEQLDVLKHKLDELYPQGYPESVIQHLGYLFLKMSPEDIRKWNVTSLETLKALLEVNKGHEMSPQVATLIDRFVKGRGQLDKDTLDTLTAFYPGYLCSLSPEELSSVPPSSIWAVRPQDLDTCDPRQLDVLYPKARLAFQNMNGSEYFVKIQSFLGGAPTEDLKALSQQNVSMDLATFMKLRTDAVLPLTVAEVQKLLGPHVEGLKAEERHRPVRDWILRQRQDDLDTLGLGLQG
REPORTED ENDPOINT: OD450
Give only the figure.

### Prompt Requested field: OD450. Item: S009-F7.6.17 chimeric antibody (antibody, human IgG1, kappa, V domains shown, Human-murine chimeric antibody, human IgG1/kappa constant regions) VH: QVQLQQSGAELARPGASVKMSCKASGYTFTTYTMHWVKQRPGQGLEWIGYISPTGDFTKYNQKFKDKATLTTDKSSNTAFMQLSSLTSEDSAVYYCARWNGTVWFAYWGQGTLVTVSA VL: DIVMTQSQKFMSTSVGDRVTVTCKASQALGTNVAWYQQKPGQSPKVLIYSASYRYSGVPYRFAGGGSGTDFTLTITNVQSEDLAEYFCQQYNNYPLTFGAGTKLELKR
### Response 2.49
